Listing of recorded GI50 by entry.
- Test system: SW-620
- EXPERIMENT_SUMMARY: NCI tumour cell line growth inhibition, 48 h
The source made the active and inactive calls. No stated cut-off is given here; in the data, active = GI50 up to about 1.1 µM and inactive = higher.
PROPERTY_MEASURED: GI50

molecule=C/C(=N\NC(=O)c1cccnc1)c1cccc(/C(C)=N/NC(=O)c2cccnc2)n1.CC(=O)[O-].CC(=O)[O-].[Zn+2] property_measured=GI50 measured="3.54 µM (inactive)"
molecule=Cn1cnc([N+](=O)[O-])c1Sc1ccccn1 property_measured=GI50 measured="> 100 µM (inactive)"
molecule="O=C1CCCCC1C(O)(C(F)(F)F)C(F)(F)Cl (configuration not stated)" property_measured=GI50 measured="> 10 µM (inactive)"
molecule="C=CCC1(CN(C)C)CC/C(=C\\c2cc(OC)c(OC)c(OC)c2)C1=O (configuration not stated)" property_measured=GI50 measured="18.7 µM (inactive)"
molecule="C/C=C1\\CN2CCc3c([nH]c4ccccc34)C2CC1CCO (configuration not stated)" property_measured=GI50 measured="> 100 µM (inactive)"
molecule=O=c1c2ncn(CCCl)c2n(-c2ccccc2)c(=S)n1-c1ccccc1 property_measured=GI50 measured="> 100 µM (inactive)"
molecule="O=C1O[B-](c2ccccc2)(c2ccccc2)[NH+]2CCCC12 (configuration not stated)" property_measured=GI50 measured="63.4 µM (inactive)"
molecule="C=CCC(CNC(=O)OCc1ccccc1)O[Si](C)(C)C(C)(C)C (configuration not stated)" property_measured=GI50 measured="38.1 µM (inactive)"
molecule=Cn1cnc(N2CCCC2)c(C#N)c1=O property_measured=GI50 measured="> 100 µM (inactive)"
molecule=CCCCCCCCCCCCCS(=O)(=O)NCC(N)=O property_measured=GI50 measured="> 100 µM (inactive)"
molecule="COc1ccc(C2CCc3cc4c(cc3/C2=N/OC(C)=O)OCO4)cc1OC (configuration not stated)" property_measured=GI50 measured="27.4 µM (inactive)"
molecule=O=c1[nH]c(=O)c2c([nH]1)[nH]c1ccc(Br)cc12 property_measured=GI50 measured="> 100 µM (inactive)"
molecule="CC(=O)OC1COC(n2c3ccccc3c3ccc4c5ccccc5[nH]c4c32)C(OC(C)=O)C1OC(C)=O (configuration not stated)" property_measured=GI50 measured="41.2 µM (inactive)"
molecule=COc1ccc2oc(=O)c(-c3nc4ccccc4o3)cc2c1 property_measured=GI50 measured="> 100 µM (inactive)"
molecule="NC(Cc1ccc(OCc2ccccc2)cn1)C(=O)O (configuration not stated)" property_measured=GI50 measured="> 100 µM (inactive)"
molecule=Nc1nc(Cl)cc(Nc2cc(Cl)cc(Cl)c2)n1 property_measured=GI50 measured="22.4 µM (inactive)"
molecule=Nc1ccc(/N=N/c2ccccc2)cc1 property_measured=GI50 measured="51.8 µM (inactive)"
molecule="CC(=O)NC1C(OCc2ccccc2)OC(CO)C(O)C1OCC(=O)N[C@@H](C)C(=O)N[C@H](CCC(=O)NCCNc1ccc([N+](=O)[O-])c2[nH]c3ccccc3c(=O)c12)C(N)=O (some centres not stated)" property_measured=GI50 measured="7.74 µM (inactive)"
molecule=O=C1Nc2ccccc2/C1=N/NC(=S)N1CCCCCC1 property_measured=GI50 measured="0.594 µM (active)"
molecule=COc1ccccc1-c1nc[nH]c1-c1ccccc1OC property_measured=GI50 measured="40.3 µM (inactive)"
molecule="CCC(C#N)N(Cc1ccc(CN(C(=O)c2ccccc2)C(C#N)CC)cc1)C(=O)c1ccccc1 (configuration not stated)" property_measured=GI50 measured="28.5 µM (inactive)"
molecule="Cc1ccccc1C1=C(C(=O)Nc2ccc(Cl)c(Cl)c2)NC(=S)NC1N (configuration not stated)" property_measured=GI50 measured="> 100 µM (inactive)"
